Test: Antiproliferative activity against human WM1361 cells after 48 hrs by MTT assay
Assay type: functional, cell-based
Details: WM1361, 48 h
ENDPOINT_LABEL: pIC50
Kindly note that pIC50 refers to -log10 of the concentration in mol/L and answer with the value alone.

Please list pIC50 recorded for the compound `Cc1ccc(-c2cc(NC(=O)c3ccc(Cl)nc3)n[nH]2)cc1` 4.78

Please list pIC50 recorded for the compound `Cc1ccc(-c2cc(NC(=O)c3cccnc3F)n[nH]2)cc1` 4.88

Please list pIC50 recorded for the compound `COc1ncccc1C(=O)Nc1cc(-c2ccccc2)[nH]n1` 4.59

Please list pIC50 recorded for the compound `Cc1ccc(-c2cc(NC(=O)c3cncc(Br)c3)n[nH]2)cc1` 4.75

Please list pIC50 recorded for the compound `COc1ccc(C(=O)Nc2cc(-c3ccc(Br)cc3)[nH]n2)cn1` 4.55

Please list pIC50 recorded for the compound `O=C(Nc1cc(-c2ccc(Br)cc2)[nH]n1)c1cccnc1F` 4.81

Please list pIC50 recorded for the compound `O=C(Nc1cc(-c2ccccc2)[nH]n1)c1ccc(Br)nc1` 4.71

Please list pIC50 recorded for the compound `COc1ncccc1C(=O)Nc1cc(-c2ccc(C)cc2)[nH]n1` 4.59

Please list pIC50 recorded for the compound `O=C(Nc1cc(-c2ccccc2)[nH]n1)c1cncc(Br)c1` 4.71

Please list pIC50 recorded for the compound `O=C(Nc1cc(-c2ccc(Br)cc2)[nH]n1)c1ccc(Br)nc1` 4.69

Please list pIC50 recorded for the compound `O=C(Nc1cc(-c2ccccc2)[nH]n1)c1ccc(Cl)nc1` 4.72

Please list pIC50 recorded for the compound `O=C(Nc1cc(-c2ccc(Br)cc2)[nH]n1)c1cccnc1Cl` 4.73

Please list pIC50 recorded for the compound `COc1ccc(C(=O)Nc2cc(-c3ccccc3)[nH]n2)cn1` 4.61

Please list pIC50 recorded for the compound `O=C(Nc1cc(-c2ccccc2)[nH]n1)c1cccnc1Cl` 4.76

Please list pIC50 recorded for the compound `COc1ncccc1C(=O)Nc1cc(-c2ccc(Br)cc2)[nH]n1` 4.51

Please list pIC50 recorded for the compound `Cc1ccc(-c2cc(NC(=O)c3ccc(Br)nc3)n[nH]2)cc1` 4.73

Please list pIC50 recorded for the compound `Cc1ccc(-c2cc(NC(=O)c3cccnc3Cl)n[nH]2)cc1` 4.80

Please list pIC50 recorded for the compound `O=C(Nc1cc(-c2ccc(Br)cc2)[nH]n1)c1ccc(Cl)nc1` 4.71

Please list pIC50 recorded for the compound `O=C(Nc1cc(-c2ccccc2)[nH]n1)c1cccnc1F` 4.84

Please list pIC50 recorded for the compound `COc1ccc(C(=O)Nc2cc(-c3ccc(C)cc3)[nH]n2)cn1` 4.60

Please list pIC50 recorded for the compound `CCCS(=O)(=O)Nc1ccc(F)c(C(=O)c2c[nH]c3ncc(-c4ccc(Cl)cc4)cc23)c1F` 5.73

Please list pIC50 recorded for the compound `O=C(Nc1cc(-c2ccc(Br)cc2)[nH]n1)c1cncc(Br)c1` 4.69

====

Test system: A-375
Assay: Antiproliferative activity against human A375 cells after 48 hrs by MTT assay
Format: functional, cell-based
Settings: A-375, 48 h
Record form. Attribute: IC50. Fill in for each entry.
Report the figure in µM without appending any unit label.

Please list IC50 recorded for the compound `COc1ccc(C(=O)Nc2cc(-c3ccc(Br)cc3)[nH]n2)cn1` 8.95

Please list IC50 recorded for the compound `Cc1ccc(-c2cc(NC(=O)c3cncc(Br)c3)n[nH]2)cc1` 7.05

Please list IC50 recorded for the compound `Cc1ccc(-c2cc(NC(=O)c3cccnc3Cl)n[nH]2)cc1` 6.44

Please list IC50 recorded for the compound `COc1ncccc1C(=O)Nc1cc(-c2ccc(Br)cc2)[nH]n1` 11.1

Please list IC50 recorded for the compound `Cc1ccc(-c2cc(NC(=O)c3ccc(Br)nc3)n[nH]2)cc1` 7.67

Please list IC50 recorded for the compound `Cc1ccc(-c2cc(NC(=O)c3cccnc3F)n[nH]2)cc1` 3.16

Please list IC50 recorded for the compound `Cc1ccc(-c2cc(NC(=O)c3ccc(Cl)nc3)n[nH]2)cc1` 6.88

Please list IC50 recorded for the compound `CCCS(=O)(=O)Nc1ccc(F)c(C(=O)c2c[nH]c3ncc(-c4ccc(Cl)cc4)cc23)c1F` 0.19

Please list IC50 recorded for the compound `O=C(Nc1cc(-c2ccccc2)[nH]n1)c1ccc(Cl)nc1` 7.85

Please list IC50 recorded for the compound `COc1ncccc1C(=O)Nc1cc(-c2ccccc2)[nH]n1` 9.94

Please list IC50 recorded for the compound `O=C(Nc1cc(-c2ccccc2)[nH]n1)c1ccc(Br)nc1` 8.87

Please list IC50 recorded for the compound `O=C(Nc1cc(-c2ccccc2)[nH]n1)c1cncc(Br)c1` 8.12

Please list IC50 recorded for the compound `COc1ccc(C(=O)Nc2cc(-c3ccccc3)[nH]n2)cn1` 9.56

Please list IC50 recorded for the compound `O=C(Nc1cc(-c2ccc(Br)cc2)[nH]n1)c1cncc(Br)c1` 9.42

Please list IC50 recorded for the compound `O=C(Nc1cc(-c2ccc(Br)cc2)[nH]n1)c1cccnc1F` 5.42

Please list IC50 recorded for the compound `O=C(Nc1cc(-c2ccccc2)[nH]n1)c1cccnc1F` 4.88

Please list IC50 recorded for the compound `COc1ccc(C(=O)Nc2cc(-c3ccc(C)cc3)[nH]n2)cn1` 8.42

Please list IC50 recorded for the compound `O=C(Nc1cc(-c2ccc(Br)cc2)[nH]n1)c1ccc(Br)nc1` 9.91

Please list IC50 recorded for the compound `O=C(Nc1cc(-c2ccc(Br)cc2)[nH]n1)c1cccnc1Cl` 8.22

Please list IC50 recorded for the compound `O=C(Nc1cc(-c2ccc(Br)cc2)[nH]n1)c1ccc(Cl)nc1` 8.89

Please list IC50 recorded for the compound `O=C(Nc1cc(-c2ccccc2)[nH]n1)c1cccnc1Cl` 7.34

Please list IC50 recorded for the compound `COc1ncccc1C(=O)Nc1cc(-c2ccc(C)cc2)[nH]n1` 8.73

====

Experiment: Inhibition of mouse full-length GST-tagged BRAF V600E mutant pre-incubated at room temperature for 1 h before N-terminal His-tagged MEK1 substrate addition
ENDPOINT_LABEL: IC50 (nM)
Report the figure in nM without appending any unit label.

Please list IC50 recorded for the molecule `Cc1ccc(-c2cc(NC(=O)c3cccnc3Cl)n[nH]2)cc1` 690

Please list IC50 recorded for the molecule `O=C(Nc1cc(-c2ccc(Br)cc2)[nH]n1)c1cccnc1F` 780

Please list IC50 recorded for the molecule `O=C(Nc1cc(-c2ccc(Br)cc2)[nH]n1)c1ccc(Cl)nc1` 850

Please list IC50 recorded for the molecule `O=C(Nc1cc(-c2ccccc2)[nH]n1)c1cncc(Br)c1` 980

Please list IC50 recorded for the molecule `COc1ncccc1C(=O)Nc1cc(-c2ccc(C)cc2)[nH]n1` 1320

Please list IC50 recorded for the molecule `Cc1ccc(-c2cc(NC(=O)c3cncc(Br)c3)n[nH]2)cc1` 820

Please list IC50 recorded for the molecule `Cc1ccc(-c2cc(NC(=O)c3ccc(Br)nc3)n[nH]2)cc1` 860

Please list IC50 recorded for the molecule `O=C(Nc1cc(-c2ccc(Br)cc2)[nH]n1)c1cccnc1Cl` 840

Please list IC50 recorded for the molecule `COc1ccc(C(=O)Nc2cc(-c3ccccc3)[nH]n2)cn1` 1500

Please list IC50 recorded for the molecule `COc1ccc(C(=O)Nc2cc(-c3ccc(Br)cc3)[nH]n2)cn1` 1790

====

Test: Antiproliferative activity against human WM266.4 cells after 48 hrs by MTT assay
Type: functional, cell-based
Conditions: WM 266-4, 48 h
ENDPOINT_LABEL: pIC50
Kindly note that pIC50 refers to -log10 of the concentration in mol/L and answer with the value alone.

Please list pIC50 recorded for the compound `O=C(Nc1cc(-c2ccc(Br)cc2)[nH]n1)c1ccc(Br)nc1` 5.07

Please list pIC50 recorded for the compound `O=C(Nc1cc(-c2ccccc2)[nH]n1)c1cncc(Br)c1` 5.16

Please list pIC50 recorded for the compound `COc1ccc(C(=O)Nc2cc(-c3ccccc3)[nH]n2)cn1` 5.07

Please list pIC50 recorded for the compound `O=C(Nc1cc(-c2ccc(Br)cc2)[nH]n1)c1cncc(Br)c1` 5.08

Please list pIC50 recorded for the compound `Cc1ccc(-c2cc(NC(=O)c3cncc(Br)c3)n[nH]2)cc1` 5.19

Please list pIC50 recorded for the compound `Cc1ccc(-c2cc(NC(=O)c3ccc(Br)nc3)n[nH]2)cc1` 5.17
